We begin with a simple list: items and their reported Emax.
- Tested system: human muscarinic M1 receptor (Homo sapiens)
- Procedure details: Alphascreen Surefire phospho-ERK1/2 functional assay, M1
- Assay type: cell-based
- Details: CHO, read-out: % Emax cf. ACh, M1, CHO cells stably expressing human M1; relative to ACh
Test readout: Emax (%)

> print(dat)
                                   compound  measured.result
1  CCOC(=O)N1CCC2(CC(N3CCC(C4CCCN(C(C)C)C4=O)CC3)C2)C1 (single isomer, unassigned) [4-6 Isomer 2]               66
2  CCOC(=O)N1CCC2(CC(N3CCC(N4CCC[C@]4(C)C(=O)OC)CC3)C2)C1 (single isomer, unassigned) [2-95 Isomer 2]               19
3  CCOC(=O)N1CCC2(CC(N3CCC([C@@H]4CCCN4CCF)CC3)C2)C1 (single isomer, unassigned) [2-68 Isomer 2]               32

----------
We begin with a simple list: items and their reported Emax.
- Tested system: human muscarinic M3 receptor (Homo sapiens, UniProt P20309)
- Sequence (P20309 whole entry): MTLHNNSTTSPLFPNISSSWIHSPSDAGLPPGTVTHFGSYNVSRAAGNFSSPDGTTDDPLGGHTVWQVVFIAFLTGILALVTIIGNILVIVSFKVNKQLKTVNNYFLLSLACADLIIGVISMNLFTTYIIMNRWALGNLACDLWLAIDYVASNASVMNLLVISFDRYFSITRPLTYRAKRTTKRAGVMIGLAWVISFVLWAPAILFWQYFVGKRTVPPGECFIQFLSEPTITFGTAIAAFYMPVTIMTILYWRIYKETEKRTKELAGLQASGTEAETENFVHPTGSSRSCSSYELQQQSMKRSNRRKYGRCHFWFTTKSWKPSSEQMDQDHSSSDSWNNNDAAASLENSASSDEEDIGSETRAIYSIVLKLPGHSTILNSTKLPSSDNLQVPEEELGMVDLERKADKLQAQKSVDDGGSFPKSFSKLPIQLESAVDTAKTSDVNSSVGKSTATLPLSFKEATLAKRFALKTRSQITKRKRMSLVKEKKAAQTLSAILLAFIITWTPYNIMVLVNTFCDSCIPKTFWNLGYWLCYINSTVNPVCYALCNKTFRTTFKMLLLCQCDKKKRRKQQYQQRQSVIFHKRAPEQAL
- Procedure details: Alphascreen Surefire phospho-ERK1/2 functional assay, M3
- Details: CHO, read-out: % Emax cf. ACh, M3, CHO cells stably expressing human M3; relative to ACh
Test readout: Emax (%)

> print(dat)
                                   compound                             tested.system  measured.result
1  CCOC(=O)N1CCC2(CC(N3CCC([C@@H]4CCCN4C(=O)OCCNC)CC3)C2)C1 (single isomer, unassigned) [2-67 Isomer 2]  human muscarinic M3 receptor (Homo sapiens, UniProt P20309)                1
2  CCOC(=O)N1CCC2(CC(N3CCC(N4CCCC[C@@H]4C(=O)OC)CC3)C2)C1 (single isomer, unassigned) [4-15 Isomer 2]  human muscarinic M3 receptor (Homo sapiens, UniProt P20309)               13
3  CCOC(=O)N1CCC2(CC(N3CCC([C@@H]4CCCN4c4ccccn4)CC3)C2)C1 (single isomer, unassigned) [2-79 Isomer 2]  human muscarinic M3 receptor (Homo sapiens, UniProt P20309)               19
4  CCOC(=O)N1CCC2(CC(N3CCC(c4nccn4CC#N)CC3)C2)C1 (single isomer, unassigned) [1-52 Isomer 2]  human muscarinic M3 receptor (Homo sapiens, UniProt P20309)               20
5  CCOC(=O)N1CCC2(CC(N3CCC([C@@H]4CCCN4C(=O)NC4CC4)CC3)C2)C1 (single isomer, unassigned) [2-29 Isomer 2]  human muscarinic M3 receptor (Homo sapiens, UniProt P20309)               13
6  CCOC(=O)N1CCC2(CC(N3CCC([C@@H]4CCCN4C(=O)CCNC(=O)OCc4ccccc4)CC3)C2)C1 (single isomer, unassigned) [2-65 Isomer 2]  human muscarinic M3 receptor (Homo sapiens, UniProt P20309)                1

----------
- Tested system: human muscarinic M4 receptor (Homo sapiens, UniProt P08173)
- Construct: expressed in transfected cells
- Sequence (P08173 1-479): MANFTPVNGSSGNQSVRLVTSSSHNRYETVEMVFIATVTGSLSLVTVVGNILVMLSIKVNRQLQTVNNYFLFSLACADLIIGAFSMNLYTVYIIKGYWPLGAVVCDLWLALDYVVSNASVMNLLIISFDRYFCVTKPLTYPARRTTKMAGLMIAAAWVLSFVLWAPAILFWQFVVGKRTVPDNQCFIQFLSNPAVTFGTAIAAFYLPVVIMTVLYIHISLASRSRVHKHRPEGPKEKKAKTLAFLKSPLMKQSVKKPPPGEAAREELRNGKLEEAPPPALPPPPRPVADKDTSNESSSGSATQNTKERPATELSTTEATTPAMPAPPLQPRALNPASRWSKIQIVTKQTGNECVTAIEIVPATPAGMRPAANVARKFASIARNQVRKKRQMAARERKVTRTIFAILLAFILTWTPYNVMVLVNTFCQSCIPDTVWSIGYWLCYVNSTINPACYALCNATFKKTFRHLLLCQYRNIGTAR
- Procedure details: Alphascreen Surefire phospho-ERK1/2 functional assay, M4
- Format: cell-based
- Details: CHO cells stably expressing human M4; phospho-ERK1/2; * = variable results; read-out: pEC50 M4 (converted)
Test readout: log10(EC50) (log10 of the value in nM)

> print(dat)
                                   compound  test.readout  measured.result
1  CCOC(=O)N1CCC2(CC(N3CCC(c4cc(N)n[nH]4)CC3)C2)C1 (single isomer, unassigned) [1-19 Isomer 2]   log10(EC50)             3.90
2  CCOC(=O)N1CCC2(CC(N3CCC([C@@H]4CCCN4C(=O)NC4CC4)CC3)C2)C1 (single isomer, unassigned) [2-29 Isomer 2]   log10(EC50)             1.20
3  CCOC(=O)N1CCC2(CC(N3CCC(n4cccc4)CC3)C2)C1 (single isomer, unassigned) [1-32 Isomer 2]   log10(EC50)             0.80
4  CCOC(=O)N1CCC2(CC(N3CCC(C4CCCN4C(=O)NOC)CC3)C2)C1 (single isomer, unassigned) [2-24 Isomer 2]   log10(EC50)             1.30
5  CCOC(=O)N1CCC2(CC(N3CCC([C@@H]4CCCN4C(=O)C4CCC4)CC3)C2)C1 (single isomer, unassigned) [2-9 Isomer 2]   log10(EC50)             1.00
6  CCOC(=O)N1CCC2(CC(N3CCC([C@@H]4CCCN4C(=O)OC)CC3)C2)C1 (single isomer, unassigned) [2-12 Isomer 2]   log10(EC50)             1.00

----------
We begin with a simple list: items and their reported Emax.
- Tested system: UniProtKB P11229
- Procedure details: Alphascreen Surefire phospho-ERK1/2 functional assay, M1
- Assay type: cell-based
- Details: CHO, read-out: % Emax cf. ACh, M1, CHO cells stably expressing human M1; relative to ACh
Test readout: Emax (%)

> print(dat)
                                   molecule     tested.system  measured.result
1  CCOC(=O)N1CCC2(CC(N3CCC(N4CCC[C@@H]4C(F)F)CC3)C2)C1 (single isomer, unassigned) [2-103 Isomer 2]  UniProtKB P11229               26
2  CCOC(=O)N1CCC2(CC(N3CCC([C@@H]4CCCN4C(=O)C4CCC4)CC3)C2)C1 (single isomer, unassigned) [2-9 Isomer 2]  UniProtKB P11229               43
3  CCOC(=O)N1CCC2(CC(N3CCC(N4CCC[C@@H]4c4nccs4)CC3)C2)C1 (single isomer, unassigned) [2-132 Isomer 2]  UniProtKB P11229               18

----------
We begin with a simple list: items and their reported pEC50.
- Tested system: human muscarinic M3 receptor (Homo sapiens)
- Procedure details: Alphascreen Surefire phospho-ERK1/2 functional assay, M3
- Details: pEC50 M3, CHO cells stably expressing human M3; phospho-ERK1/2; * = variable results
pEC50: −log10 of the molar value.
Test readout: pEC50

> print(dat)
                                   molecule  test.readout  measured.result
1  CCOC(=O)N1CCC2(CC(N3CCC(OC)(c4ncc[nH]4)CC3)C2)C1 (single isomer, unassigned) [1-38 Isomer 2]         pEC50           < 4.70
2  COc1ncccc1C1CCN(C2CC3(CCN(C(=O)OCCF)C3)C2)CC1 (single isomer, unassigned) [3-5 Isomer 2]         pEC50           < 4.70
3  CCOC(=O)N1CCC2(CC(N3CCC(C4CCCN4C(=O)C(F)(F)F)CC3)C2)C1 (single isomer, unassigned) [2-4 Isomer 2]         pEC50           < 4.70
4  CCOC(=O)N1CCC2(CC(N3CCC([C@@H]4CCCN4C(=O)NCC(F)(F)F)CC3)C2)C1 (single isomer, unassigned) [2-26 Isomer 2]         pEC50           < 4.70
5  CCOC(=O)N1CCC2(CC(N3CCC([C@@H]4CCCN4C(=O)CC)CC3)C2)C1 (single isomer, unassigned) [2-7 Isomer 2]         pEC50             5.10
6  CCOC(=O)N1CCC2(CC(N3CCC(c4nccs4)CC3)C2)C1 (single isomer, unassigned) [1-25 Isomer 2]         pEC50           < 4.70

----------
- Tested system: human muscarinic M1 receptor (Homo sapiens, UniProt P11229)
- Sequence (P11229 whole entry): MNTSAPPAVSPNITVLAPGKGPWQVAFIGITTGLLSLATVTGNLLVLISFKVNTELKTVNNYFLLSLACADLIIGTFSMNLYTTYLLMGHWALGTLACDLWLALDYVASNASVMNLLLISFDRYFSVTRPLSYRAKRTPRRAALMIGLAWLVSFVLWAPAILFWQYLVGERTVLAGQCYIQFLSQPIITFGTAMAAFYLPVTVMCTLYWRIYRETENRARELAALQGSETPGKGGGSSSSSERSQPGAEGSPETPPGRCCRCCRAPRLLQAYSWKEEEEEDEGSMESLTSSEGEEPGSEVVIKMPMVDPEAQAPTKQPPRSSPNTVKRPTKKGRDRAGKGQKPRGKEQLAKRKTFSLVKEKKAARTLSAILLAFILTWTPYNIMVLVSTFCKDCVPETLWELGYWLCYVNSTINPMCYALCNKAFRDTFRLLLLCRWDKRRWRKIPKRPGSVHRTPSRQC
- Procedure details: Alphascreen Surefire phospho-ERK1/2 functional assay, M1
- Type: cell-based
- Details: pEC50 M1, CHO cells stably expressing human M1; phospho-ERK1/2; * = variable results
Test readout: EC50 (nM)

> print(dat)
                                   molecule  test.readout  measured.result
1  CCOC(=O)N1CCC2(CC(N3CCC(OC)(c4ncc[nH]4)CC3)C2)C1 (single isomer, unassigned) [1-38 Isomer 2]          EC50              100
